Measured values drawn from paper PMC12208134 for this set.

property-label: IC50

Q: Lab note: need IC50 with Tc-MetRS (Trypanosoma cruzi, UniProt Q4D6H2) for entry Cc1ccc(NC(=O)NC2C(=O)Nc3ccccc3N(c3ccccc3)C2=O)cc1 (stereo not shown) , please look it up.
Sequence (Q4D6H2 entry or part of it): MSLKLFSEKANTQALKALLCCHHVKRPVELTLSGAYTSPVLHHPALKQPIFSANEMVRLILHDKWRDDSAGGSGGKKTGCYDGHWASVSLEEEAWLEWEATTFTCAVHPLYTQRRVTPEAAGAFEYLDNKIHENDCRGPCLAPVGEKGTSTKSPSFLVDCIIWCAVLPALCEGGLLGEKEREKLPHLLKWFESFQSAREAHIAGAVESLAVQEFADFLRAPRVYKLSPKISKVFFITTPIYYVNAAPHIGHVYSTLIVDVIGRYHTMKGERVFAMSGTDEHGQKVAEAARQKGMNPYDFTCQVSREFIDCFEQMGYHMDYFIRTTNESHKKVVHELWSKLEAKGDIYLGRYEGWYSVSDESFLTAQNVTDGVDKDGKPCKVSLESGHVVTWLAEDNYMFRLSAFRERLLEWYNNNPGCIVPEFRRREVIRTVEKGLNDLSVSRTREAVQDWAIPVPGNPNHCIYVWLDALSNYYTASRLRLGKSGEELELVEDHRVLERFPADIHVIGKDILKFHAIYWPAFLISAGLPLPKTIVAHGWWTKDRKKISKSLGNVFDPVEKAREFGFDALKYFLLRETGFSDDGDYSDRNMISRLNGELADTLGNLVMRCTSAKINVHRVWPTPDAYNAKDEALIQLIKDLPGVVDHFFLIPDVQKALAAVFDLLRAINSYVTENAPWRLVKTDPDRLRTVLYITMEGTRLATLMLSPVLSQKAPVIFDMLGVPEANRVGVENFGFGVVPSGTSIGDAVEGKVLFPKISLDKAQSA
A: > 100 µM

* * *

Record form. Attribute: solubility. Fill in for each entry.
experiment: Kinetic aqueous solubility by CAD
Assay type: physicochemical
test-context: kinetic from dmso stock
Write the value in µM as a bare number.

Q: Any idea what solubility was measured for COc1ccccc1N1C(=O)C(NC(=O)Nc2ccc(C)cc2)C(=O)Nc2ccccc21 (stereo not drawn) [Compound 6] ?
A: 129

Q: Any idea what solubility was measured for O=C(Nc1ccc(F)cc1)NC1C(=O)Nc2ccccc2N(c2ccccc2)C1=O (stereo not drawn) [Compound 3] ?
A: 26

Q: Any idea what solubility was measured for COc1ccc(CN2C(=O)CC(=O)N(c3ccc(OC)cc3)c3ccccc32)cc1 [Compound 23] ?
A: 175

* * *

Record form. Attribute: MLM CLi. Fill in for each entry.
experiment: Mouse liver microsomal intrinsic clearance
Assay type: in vitro ADME
test-context: mouse, microsomes
Write the value in mL/min/g as a bare number.

Q: Any idea what MLM CLi was measured for COc1ccccc1N1C(=O)C(NC(=O)Nc2ccc(C)cc2)C(=O)Nc2ccccc21 (stereo not drawn) ?
A: 2.1

Q: Any idea what MLM CLi was measured for O=C(Nc1ccc(F)cc1)NC1C(=O)Nc2ccccc2N(c2ccccc2)C1=O (stereo not drawn) ?
A: 0.6

Q: Any idea what MLM CLi was measured for CC(C)N(C(=O)CN1C(=O)C(N)C(=O)N(c2ccccc2)c2ccccc21)c1ccccc1 (racemic) ?
A: 3.4

Q: Any idea what MLM CLi was measured for COc1ccc(CN2C(=O)C(N)C(=O)N(c3ccccc3)c3c(F)cccc32)cc1 (stereo not drawn) ?
A: 9.0

Q: Any idea what MLM CLi was measured for `COc1ccc(CN2C(=O)CC(=O)N(c3ccc(OC)cc3)c3ccccc32)cc1` ?
A: 80

Q: Any idea what MLM CLi was measured for COc1ccc(CN2C(=O)C(N)C(=O)N(c3ccc(OC)cc3)c3ccccc32)cc1 (stereo not drawn) ?
A: 7.6

* * *

experiment: Mouse liver microsomal intrinsic clearance
Type: in vitro ADME
test-context: mouse liver microsomes
Record form. Attribute: MLM CLi. Fill in for each entry.
Provide the measurement as a number trailed by its unit.

Q: Any idea what MLM CLi was measured for Cc1ccc(NC(=O)NC2COc3ccccc3N(c3ccccc3)C2=O)cc1 (stereo not shown) [Compound 13] ?
A: 4.9 mL/min/g

Q: Any idea what MLM CLi was measured for COc1cccc(N2C(=O)C(NC(=O)Nc3ccc(C)cc3)C(=O)Nc3ccccc32)c1 (stereo not shown) [Compound 5] ?
A: 1.6 mL/min/g

Q: Any idea what MLM CLi was measured for COc1ccc(CN2C(=O)C(N)C(=O)N(c3ccc(OC)nc3)c3ccccc32)cc1 (stereo not shown) [Compound 18] ?
A: 5.8 mL/min/g

Q: Any idea what MLM CLi was measured for COc1ccc(CN2C(=O)C(N)C(=O)N(C3CC3)c3ccccc32)cc1 (stereo not shown) [Compound 19] ?
A: 11.8 mL/min/g

* * *

target-or-system: UniProtKB Q7Z1V1
Sequence (Q7Z1V1 whole entry): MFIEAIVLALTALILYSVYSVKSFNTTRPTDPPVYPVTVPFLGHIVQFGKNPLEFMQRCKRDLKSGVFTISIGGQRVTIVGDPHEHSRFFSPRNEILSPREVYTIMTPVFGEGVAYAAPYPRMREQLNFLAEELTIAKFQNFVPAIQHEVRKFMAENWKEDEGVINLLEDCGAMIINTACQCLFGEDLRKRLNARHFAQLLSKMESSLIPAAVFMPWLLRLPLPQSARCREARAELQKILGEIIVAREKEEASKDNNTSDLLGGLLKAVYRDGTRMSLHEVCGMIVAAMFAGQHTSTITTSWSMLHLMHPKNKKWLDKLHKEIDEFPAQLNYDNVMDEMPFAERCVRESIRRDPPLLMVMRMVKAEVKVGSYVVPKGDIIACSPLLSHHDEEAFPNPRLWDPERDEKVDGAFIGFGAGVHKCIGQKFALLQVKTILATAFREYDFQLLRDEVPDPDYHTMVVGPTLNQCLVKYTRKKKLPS
experiment: T. cruzi sterol 14α-demethylase (CYP51) enzyme assay
Type: biochemical
test-context: individual replicate; read-out: Tc CYP51 Max Effect
property-label: Emax (%)
Write the value in % as a bare number.

Q: Any idea what Emax was measured for COc1ccc(CN2C(=O)C(N)C(=O)N(c3ccc(OC)nc3)c3ccccc32)cc1 (stereo not shown) ?
A: 100

Q: Any idea what Emax was measured for COc1ccc(CN2C(=O)C(N)C(=O)N(C3CC3)c3ccccc32)cc1 (stereo not shown) ?
A: 94

Q: Any idea what Emax was measured for COc1ccc(NC(=O)NC2C(=O)Nc3ccccc3N(c3ccccc3)C2=O)cc1 (stereo not shown) ?
A: 95

Q: Any idea what Emax was measured for COc1ccc(N2C(=O)C(NC(=O)Nc3ccc(C)cc3)C(=O)Nc3ccccc32)cc1 (stereo not shown) ?
A: 89

Q: Any idea what Emax was measured for COc1cccc(N2C(=O)C(NC(=O)Nc3ccc(C)cc3)C(=O)Nc3ccccc32)c1 (stereo not shown) ?
A: 68

Q: Any idea what Emax was measured for Cc1ccc(NC(=O)NC2C(=O)Nc3ccccc3N(c3ccccc3)C2=O)cc1 (stereo not shown) ?
A: 85

Q: Any idea what Emax was measured for COc1ccc(NC(=O)NC2C(=O)Nc3cccc(F)c3N(c3ccccc3)C2=O)cc1 (stereo not shown) ?
A: 90

Q: Any idea what Emax was measured for COc1ccc(CN2C(=O)C(N)C(=O)N(c3ccc(F)cc3)c3ccccc32)cc1 (stereo not shown) ?
A: 95

Q: Any idea what Emax was measured for COc1ccc(CN2C(=O)C(N)C(=O)N(c3ccccc3)c3ccccc32)cc1 (stereo not shown) ?
A: 94

Q: Any idea what Emax was measured for COc1ccc(CN2C(=O)C(N)C(=O)N(CC3CC(F)(F)C3)c3ccccc32)cc1 (stereo not shown) ?
A: 99

* * *

Record form. Attribute: solubility. Fill in for each entry.
experiment: Kinetic aqueous solubility by CAD
Type: physicochemical
test-context: kinetic from dmso stock

Q: Any idea what solubility was measured for COc1ccc(CN2C(=O)C(N)C(=O)N(c3ccc(OC)cc3)c3ccccc32)cc1 (stereo not drawn) ?
A: > 270 µM

Q: Any idea what solubility was measured for CC(C)N(C(=O)CN1C(=O)C(N)C(=O)N(c2ccccc2)c2ccccc21)c1ccccc1 (racemic) ?
A: > 500 µM

Q: Any idea what solubility was measured for COc1ccc(CN2C(=O)C(N)C(=O)N(c3ccccc3)c3c(F)cccc32)cc1 (stereo not drawn) ?
A: > 217 µM
